system-under-test: human CD33 F44I (human, UniProt P20138 18-364)
Sequence (P20138 18-364 F44I limits assumed): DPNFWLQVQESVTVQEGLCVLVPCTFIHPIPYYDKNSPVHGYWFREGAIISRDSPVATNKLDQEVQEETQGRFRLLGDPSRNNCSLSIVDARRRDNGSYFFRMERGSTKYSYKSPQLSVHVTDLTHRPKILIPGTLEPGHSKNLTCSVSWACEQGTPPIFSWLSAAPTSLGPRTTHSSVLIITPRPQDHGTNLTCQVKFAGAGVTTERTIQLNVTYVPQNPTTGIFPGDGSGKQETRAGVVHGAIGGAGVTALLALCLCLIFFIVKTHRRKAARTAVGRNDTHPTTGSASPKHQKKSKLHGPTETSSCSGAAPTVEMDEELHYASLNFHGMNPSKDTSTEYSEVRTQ
assay-protocol: flow cytometry, mutant on cells, IgG
measure-name: Mean % WT Binding (% WT binding)
Please give a number only; it is taken to be in % WT binding.

Recorded Mean % WT Binding, per entry:
{"binder": "Refmab #2 (antibody, human IgG1, V domains shown, Tested in IgG format; human IgG1 Fc silent (PG-LALA)) VH: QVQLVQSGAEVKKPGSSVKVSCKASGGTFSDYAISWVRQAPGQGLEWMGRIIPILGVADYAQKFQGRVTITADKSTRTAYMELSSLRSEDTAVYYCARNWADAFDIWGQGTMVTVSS VL: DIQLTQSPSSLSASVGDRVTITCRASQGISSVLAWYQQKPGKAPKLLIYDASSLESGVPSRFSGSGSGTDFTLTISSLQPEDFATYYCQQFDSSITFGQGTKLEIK", "Mean % WT Binding (% WT binding)": 0.4}
{"binder": "Refmab #1 (antibody, human IgG1, V domains shown, Tested in IgG format; human IgG1 (Absolute Antibody hP67.6, Cat. No. Ab00283-10.0); also called hP67.6) VH: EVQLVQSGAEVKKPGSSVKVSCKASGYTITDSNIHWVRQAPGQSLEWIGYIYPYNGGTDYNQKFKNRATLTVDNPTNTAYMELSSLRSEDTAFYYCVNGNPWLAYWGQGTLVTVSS VL: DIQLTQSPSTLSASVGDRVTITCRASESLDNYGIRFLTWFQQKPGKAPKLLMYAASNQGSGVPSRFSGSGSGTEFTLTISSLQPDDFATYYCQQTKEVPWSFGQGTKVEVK", "Mean % WT Binding (% WT binding)": 100}

Now look at this entry.
Lab note: measured Mean % WT Binding of Refmab #3 (antibody, human IgG1, V domains shown, Tested in IgG format; human IgG1 Fc silent (PG-LALA)) VH: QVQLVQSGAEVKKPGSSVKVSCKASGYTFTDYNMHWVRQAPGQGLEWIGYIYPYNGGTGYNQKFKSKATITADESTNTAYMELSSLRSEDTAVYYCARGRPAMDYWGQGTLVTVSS VL: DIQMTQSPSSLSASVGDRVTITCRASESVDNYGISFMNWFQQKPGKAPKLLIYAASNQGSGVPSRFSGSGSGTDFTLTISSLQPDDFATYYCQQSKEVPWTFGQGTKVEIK was 101
